tested on: Rattus norvegicus; experiment: Compound was evaluated for diuretic activity determined by the ability to induce electrolytic excretion (Na+) at a time period of 0-24 hr for dose 9 mg/kg; format: functional, Urine
measured.attribute: Diuretic effect
Enter a number only.

A selection of reference data follows.
compound	study.system	measured.attribute	test.value
CN(C)c1nc(N)c(-c2nc(N)no2)nc1Cl	Rattus norvegicus	Diuretic effect	258
N=C(N)NC(=O)c1nc(Cl)c(N)nc1N [AMILORIDE]	Rattus norvegicus	Diuretic effect	207
C[n+]1oc(-c2nc(Cl)c(N)nc2N)nc1N.[I-]	Rattus norvegicus	Diuretic effect	296
Nc1noc(-c2nc(Cl)c(N)nc2N)n1	Rattus norvegicus	Diuretic effect	269

Lab note: next compound to report on.
-- ask Consider the compound shown here: CN(C)c1nc(N)c(-c2nc(N)[n+](C)o2)nc1Cl.[I-] What is its recorded Diuretic effect?
-- reply 224
